Molecular target: Collagenase 3 (Homo sapiens)
Test: Inhibition of matrix metalloprotease-13
TEST READOUT: Ki (nM)
Note: unit nM is implicit; provide only the numeric part.

- COMPOUND STRUCTURE: "O=C1NC(=O)C2(CCC(=O)N2c2ccc(Oc3ccccc3)cc2)C(=O)N1"
  Ki, nM: 4.7
- COMPOUND STRUCTURE: "COc1ccccc1Oc1ccc(N2C(=O)CCC23C(=O)NC(=O)NC3=O)cc1"
  Ki, nM: 110
- COMPOUND STRUCTURE: "O=C1NC(=O)C2(CCC(=O)N2c2ccc(Oc3ccc(Oc4ccccc4)cc3)cc2)C(=O)N1"
  Ki, nM: 0.33
- COMPOUND STRUCTURE: "O=C1NC(=O)C2(CCC(=O)N2c2ccc(Oc3cccc(Cl)c3)cc2)C(=O)N1"
  Ki, nM: 54
- COMPOUND STRUCTURE: "O=C1NC(=O)C2(CCC(=O)N2c2ccc(Br)cc2)C(=O)N1"
  Ki, nM: 130
- COMPOUND STRUCTURE: "O=C1NC(=O)C2(CCC(=O)N2c2ccc(Oc3ccc4c(c3)OCO4)cc2)C(=O)N1"
  Ki, nM: 5.8
- COMPOUND STRUCTURE: "COC(=O)c1ccc(Oc2ccc(N3C(=O)CCC34C(=O)NC(=O)NC4=O)cc2)cc1"
  Ki, nM: 4.2
- COMPOUND STRUCTURE: "O=C1NC(=O)C2(CCC(=O)N2c2ccc(Oc3ccc(Cl)cc3)cc2)C(=O)N1"
  Ki, nM: 0.95
- COMPOUND STRUCTURE: "O=C1NC(=O)C2(CCC(=O)N2c2ccc(OCc3ccccc3)cc2)C(=O)N1"
  Ki, nM: 1100

Consider the record given below.
Q) Please supply the value of reported Ki for the item `O=C1NC(=O)C2(CCC(=O)N2c2ccc(Oc3ccc(C(=O)O)cc3)cc2)C(=O)N1`
A) 2.7

----------
Molecular target: 72 kDa type IV collagenase (Homo sapiens)
Sequence (P08253 whole entry): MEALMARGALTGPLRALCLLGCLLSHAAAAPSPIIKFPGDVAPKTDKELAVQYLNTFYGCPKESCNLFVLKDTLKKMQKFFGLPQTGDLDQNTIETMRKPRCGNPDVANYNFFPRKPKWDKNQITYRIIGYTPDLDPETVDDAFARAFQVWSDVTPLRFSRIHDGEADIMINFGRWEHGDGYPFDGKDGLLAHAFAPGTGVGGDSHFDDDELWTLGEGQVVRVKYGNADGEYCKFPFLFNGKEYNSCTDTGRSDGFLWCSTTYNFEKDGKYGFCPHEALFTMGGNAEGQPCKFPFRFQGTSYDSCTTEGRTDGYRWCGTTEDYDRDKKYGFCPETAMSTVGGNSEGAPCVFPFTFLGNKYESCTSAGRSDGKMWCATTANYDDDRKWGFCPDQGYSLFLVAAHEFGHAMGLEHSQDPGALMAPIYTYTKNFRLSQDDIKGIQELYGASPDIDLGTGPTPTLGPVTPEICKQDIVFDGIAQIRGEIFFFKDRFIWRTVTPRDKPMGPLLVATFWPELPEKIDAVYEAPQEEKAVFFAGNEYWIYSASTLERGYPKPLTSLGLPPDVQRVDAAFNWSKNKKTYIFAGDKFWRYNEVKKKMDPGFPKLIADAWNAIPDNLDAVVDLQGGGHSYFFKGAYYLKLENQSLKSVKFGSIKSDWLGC
TEST READOUT: pKi
Scale: pKi equals -log10([C]), with [C] in mol/L.

- MOLECULE: "CCC1CC(=O)N(c2ccc(Oc3ccccc3)cc2)C12C(=O)NC(=O)NC2=O (stereo in doubt)"
  pKi: 9.40
- MOLECULE: "COC(=O)c1ccc(Oc2ccc(N3C(=O)CCC34C(=O)NC(=O)NC4=O)cc2)cc1"
  pKi: 8.33

Q) Identify measured pKi associated with `O=C1NC(=O)C2(CCC(=O)N2c2ccc(Oc3ccc(Cl)cc3)cc2)C(=O)N1`
A) 9.37

Q) Give pKi for the following molecule: `O=C1NC(=O)C2(CCC(=O)N2c2ccc(Oc3ccccc3)cc2)C(=O)N1`
A) 8.80

Q) Determine from records and report pKi for `O=C1NC(=O)C2(CCC(=O)N2c2ccc(Oc3ccc(C(=O)O)cc3)cc2)C(=O)N1`
A) 9.64

Q) Could you please provide reported pKi for CCC1CC(=O)N(c2ccc(Oc3ccccc3)cc2)C12C(=O)NC(=O)NC2=O (single isomer, unassigned) ? Thanks!
A) 8.77

Q) Using known records, supply pKi for `O=C1NC(=O)C2(CCC(=O)N2c2ccc(Oc3ccc(Oc4ccccc4)cc3)cc2)C(=O)N1`
A) 8.74

----------
Biological target: Collagenase 3 (Homo sapiens, UniProt P45452)
Test: Inhibition of matrix metalloprotease-13
TEST READOUT: pKi
Keep in mind that pKi stands for -log10 of concentration in molar terms.

- COMPOUND STRUCTURE: "COc1cccc(Oc2ccc(N3C(=O)CCC34C(=O)NC(=O)NC4=O)cc2)c1"
  pKi: 8.72
- COMPOUND STRUCTURE: "O=C1NC(=O)C2(CCC(=O)N2c2ccccc2)C(=O)N1"
  pKi: 5.66
- COMPOUND STRUCTURE: "O=C1NC(=O)C2(CCC(=O)N2c2ccc(-c3ccccc3)cc2)C(=O)N1"
  pKi: 6.03

Now for the compound whose pKi we want.
Q) Look up pKi of `COc1ccncc1Oc1ccc(N2C(=O)CCC23C(=O)NC(=O)NC3=O)cc1` and report it.
A) 7.60

All values here come from ChEMBL document CHEMBL1144322.
